# System Name: T1, human TL1A extracellular domain with N-terminal HIS and FLAG tag (human, UniProt O95150 72-251)
# T1 construct: the whole entry is named; also called TNFSF15
# T1 sequence: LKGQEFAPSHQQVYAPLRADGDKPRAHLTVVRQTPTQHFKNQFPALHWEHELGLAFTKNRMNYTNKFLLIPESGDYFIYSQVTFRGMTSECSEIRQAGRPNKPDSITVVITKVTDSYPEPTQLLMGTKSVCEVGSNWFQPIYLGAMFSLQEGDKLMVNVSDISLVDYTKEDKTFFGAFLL
# Method Summary: SPR Run 8, antibody on Protein A, TL1A 5 ug/mL, timepoint 590
Measured TL1A Binding Level (Late) values are reported for all entries that follow.
Report the value in RU with no unit label.

{"Binder": "320-594 (antibody, human IgG1, name in Kabat numbering, V domains shown, full-length human IgG1, lambda) VH: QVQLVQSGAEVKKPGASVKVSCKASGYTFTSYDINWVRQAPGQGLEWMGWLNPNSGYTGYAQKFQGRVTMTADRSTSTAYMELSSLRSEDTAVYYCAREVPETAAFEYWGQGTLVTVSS VL: QSVLTQPPSVSGAPGQRVTISCTSSSSDIGAGQGVHWYQQLPGTAPKLLIEGYYNRPSGVPDRFSGSKSGTSASLTITGLLPEDEGDYYCQSWDGTLSALFGGGTKLTVLG", "Measurement Kind": "TL1A Binding Level (Late)", "Reported Result": 132}
{"Binder": "320-590 (antibody, human IgG1, name in Kabat numbering, V domains shown, full-length human IgG1, lambda) VH: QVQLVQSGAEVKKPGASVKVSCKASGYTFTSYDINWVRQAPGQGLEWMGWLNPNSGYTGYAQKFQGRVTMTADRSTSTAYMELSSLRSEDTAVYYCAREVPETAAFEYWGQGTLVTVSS VL: QSVLTQPPSVSGAPGQRVTISCTSSSSDIGAGQGVHWYQQLPGTAPKLLIEGYYNRPSGVPDRFSGSKSGTSASLTITGLLPEDEGDYYCQSYDGTLSALFGGGTKLTVLG", "Measurement Kind": "TL1A Binding Level (Late)", "Reported Result": 121}
{"Binder": "320-595 (antibody, human IgG1, name in Kabat numbering, V domains shown, full-length human IgG1, lambda) VH: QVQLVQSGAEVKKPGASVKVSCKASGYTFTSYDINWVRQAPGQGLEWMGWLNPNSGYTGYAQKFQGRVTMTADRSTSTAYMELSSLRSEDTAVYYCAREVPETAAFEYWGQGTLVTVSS VL: QSVLTQPPSVSGAPGQRVTISCTSSSSDIGAGLGVLWYQQLPGTAPKLLIEGYYNRPSGVPDRFSGSKSGTSASLTITGLLPEDEGDYYCQSWDGTLSALFGGGTKLTVLG", "Measurement Kind": "TL1A Binding Level (Late)", "Reported Result": 128}
{"Binder": "320-583 (antibody, human IgG1, name in Kabat numbering, V domains shown, full-length human IgG1, lambda) VH: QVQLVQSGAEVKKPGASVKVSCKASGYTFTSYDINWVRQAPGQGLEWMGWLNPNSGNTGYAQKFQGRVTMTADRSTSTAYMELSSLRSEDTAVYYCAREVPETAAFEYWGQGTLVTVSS VL: QSVLTQPPSVSGAPGQRVTISCTSSSSDIGAALGVHWYQQLPGTAPKLLIEGYYNRPSGVPDRFSGSKSGTSASLTITGLLPEDEGDYYCQSWDGTLSALFGGGTKLTVLG", "Measurement Kind": "TL1A Binding Level (Late)", "Reported Result": 103}

If you can, please state the reported TL1A Binding Level (Late) value of 320-585 (antibody, human IgG1, name in Kabat numbering, V domains shown, full-length human IgG1, lambda) VH: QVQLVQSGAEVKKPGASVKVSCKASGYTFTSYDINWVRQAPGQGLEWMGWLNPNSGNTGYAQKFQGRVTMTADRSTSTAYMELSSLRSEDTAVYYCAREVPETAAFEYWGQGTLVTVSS VL: QSVLTQPPSVSGAPGQRVTISCTSSSSDIGAGQGVHWYQQLPGTAPKLLIEGYYNRPSGVPDRFSGSKSGTSASLTITGLLPEDEGDYYCQSWDGTLSALFGGGTKLTVLG .
109
